- TEST_TARGET: Serine/threonine-protein kinase B-raf (Homo sapiens, UniProt P15056, V600E)
- Sequence (P15056 2-766 V600E limits assumed): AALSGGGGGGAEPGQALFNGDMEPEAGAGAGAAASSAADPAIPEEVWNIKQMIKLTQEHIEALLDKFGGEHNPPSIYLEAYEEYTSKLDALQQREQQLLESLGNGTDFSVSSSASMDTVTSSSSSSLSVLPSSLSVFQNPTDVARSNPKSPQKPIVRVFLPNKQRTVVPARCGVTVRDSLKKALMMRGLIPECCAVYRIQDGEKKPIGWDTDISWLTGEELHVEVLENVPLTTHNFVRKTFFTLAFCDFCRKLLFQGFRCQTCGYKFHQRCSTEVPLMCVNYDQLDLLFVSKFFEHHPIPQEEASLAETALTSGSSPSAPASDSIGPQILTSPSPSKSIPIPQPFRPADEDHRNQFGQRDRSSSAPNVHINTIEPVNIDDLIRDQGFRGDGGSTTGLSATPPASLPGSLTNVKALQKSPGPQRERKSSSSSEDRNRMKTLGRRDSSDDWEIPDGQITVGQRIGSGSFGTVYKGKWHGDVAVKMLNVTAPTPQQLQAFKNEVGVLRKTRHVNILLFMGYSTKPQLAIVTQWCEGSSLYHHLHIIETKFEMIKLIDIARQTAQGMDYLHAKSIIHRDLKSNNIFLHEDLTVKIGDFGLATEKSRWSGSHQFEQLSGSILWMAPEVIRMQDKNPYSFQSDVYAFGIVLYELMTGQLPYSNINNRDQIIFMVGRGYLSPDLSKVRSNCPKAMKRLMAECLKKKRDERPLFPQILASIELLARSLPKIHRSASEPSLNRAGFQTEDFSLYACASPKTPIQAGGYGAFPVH
- TEST_DETAILS: Inhibition of human BRAF V600E mutant expressed in baculovirus system
Response field label takes TRUE when IC50 is strictly below 300 nM and FALSE in all other cases.

Consider the worked cases shown below.
Request: API: query returns whether the molecule falls strictly under 300 nM in IC50. Query: Cn1c(=O)[nH]c2nccc(Oc3ccc(NC(=O)Nc4cc(C(C)(C)C)nn4-c4ccccc4)cc3)c21
Response: TRUE

Request: Record CC(C)(C)c1cc(NC(=O)Nc2ccc(Oc3ccnc4[nH]c(=O)[nH]c34)cc2)n(C(C)(C)C)n1 : is its IC50 strictly below 300 nM?
Response: FALSE

New cases:
Request: Could you please tell me whether IC50 recorded for Cn1c(=O)[nH]c2c(Oc3ccc(NC(=O)Nc4cc(C(C)(C)C)nn4-c4ccccc4)cc3)ccnc21 is less than 300 nM?
Response: FALSE

Request: I'd appreciate it if you could check whether CC(C)(C)c1cc(NC(=O)Nc2ccc(Oc3ccnc4[nH]c(=O)[nH]c34)c3ccccc23)n(-c2ccccc2)n1 has IC50 smaller than 300 nM.
Response: FALSE

Request: Lab note: IC50 threshold 300 nM. Does this molecule come in strictly under it? Cc1ccc(-n2nc(C(C)(C)C)cc2NC(=O)Nc2ccc(Oc3ccnc4c3n(C)c(=O)n4C)cc2F)cc1
Response: FALSE

Request: Threshold test, IC50 < 300 nM: Cn1nc(C(C)(C)C)cc1NC(=O)Nc1ccc(Oc2ccnc3c2[nH]c(=O)n3C)cc1
Response: TRUE

Request: is_below(IC50, 300 nM) for Cc1ccc(-n2nc(C(C)(C)C)cc2NC(=O)Nc2ccc(Oc3ccnc4c3[nH]c(=O)n4C)cc2)cc1 ?
Response: FALSE

Request: Problem: For the molecule Cn1nc(C(C)(C)C)cc1NC(=O)Nc1ccc(Oc2ccnc3[nH]c(=O)n(C)c23)c2ccccc12 , is IC50 under 300 nM?
Response: TRUE

Request: Quick check: does Cc1ccc(-n2nc(C(F)(F)F)cc2NC(=O)Nc2ccc(Oc3ccnc4[nH]c(=O)n(C)c34)cc2)cc1 have IC50 under 300 nM?
Response: TRUE

Request: Quick check: does Cn1c(=O)[nH]c2nccc(Oc3ccc(NC(=O)Nc4cc(C(C)(C)C)nn4-c4ccccc4)c4ccccc34)c21 have IC50 under 300 nM?
Response: TRUE

Request: Quick check: IC50 of CCCn1nc(C(C)(C)C)cc1NC(=O)Nc1ccc(Oc2ccnc3[nH]c(=O)[nH]c23)cc1 under 300 nM?
Response: TRUE

Request: # check: IC50 < 300 nM for Cn1c(=O)[nH]c2nccc(Oc3ccc(NC(=O)Nc4cc(C5CC5)nn4-c4ccccc4)cc3)c21
Response: TRUE

====

- TEST_DETAILS: Tmax in BALB/cAnNCrl mouse at 10 mg/kg, po
- Type: ADME, organism-based
- Parameters: dose 10 mg/kg, route oral
- CONDITIONS_USED: in vivo
RESULT_TYPE: Tmax (min)
Please reply with the bare figure in min and do not write the unit itself.

Recorded Tmax, per entry:
Tmax recorded for this molecule, Cc1ccc(-n2nc(C(C)(C)C)cc2NC(=O)Nc2ccc(Oc3ccnc4c3n(C)c(=O)n4C)cc2F)cc1 , is 30

Item: CC(C)(C)c1cc(NC(=O)Nc2ccc(Oc3ccnc4[nH]c(=O)[nH]c34)cc2F)n(-c2ccccc2)n1 | Tmax: 15

Tmax in this record for Cc1ccc(-n2nc(C(C)(C)C)cc2NC(=O)Nc2ccc(Oc3ccnc4[nH]c(=O)[nH]c34)cc2F)cc1 : 90

Note: attention shifts to another entry.
Entry under test: Cc1ccc(-n2nc(C(C)(C)C)cc2NC(=O)Nc2ccc(Oc3ccnc4c3[nH]c(=O)n4C)cc2F)cn1 . Its Tmax was 15
